These data points were gathered from patent US20160297828A1.

- System: rats with intracerebral hemorrhage
- PROTOCOL: Conditioned response of passive avoidance (CRPA) in rats with intracerebral hemorrhage
- Type: in vivo
- ASSAY CONTEXT: 21st day; SI-86 10 mg/kg iv, mexydol 100, citocoline 250, actovegin 16, pyracetam 400 mg/kg ip; n = 15
QUANTITY: Latent period for entrance into dark compartment, prior study

Check out these entries, answers already filled in.
MOLECULE: CSCC[C@@H]1N[C@@]2(C(=O)Nc3ccccc32)[C@@H]2C(=O)N(c3ccc(C)cc3)C(=O)[C@H]12 [SI-86]
TEST RESULT: 9.50 ± 0.34°*^#•$ s
//
MOLECULE: NC(=O)CN1CCCC1=O [pyracetam]
TEST RESULT: 15.90 ± 0.51°* s
//
MOLECULE: CCc1nc(C)ccc1O.O=C(O)CCC(=O)O [mexydol]
TEST RESULT: 11.30 ± 0.47°*^#$ s

Turning now to a further record.
Enquiry: GET Latent period for entrance into dark compartment, prior study | system: rats with intracerebral hemorrhage | item: C[N+](C)(C)CCOP(=O)(O)OP(=O)([O-])OC[C@H]1O[C@@H](n2ccc(N)nc2=O)[C@H](O)[C@@H]1O [citocoline, reference compound]
Return: 12.50 ± 0.75°*^# s

----------
- PROTOCOL: Acute toxicity in rats
- Assay type: in vivo
- ASSAY CONTEXT: rat, in vivo, oral; rats
QUANTITY: LD50 at 2 weeks

Enquiry: # return recorded LD50 at 2 weeks for input "CSCC[C@@H]1N[C@@]2(C(=O)Nc3ccccc32)[C@@H]2C(=O)N(c3ccc(C)cc3)C(=O)[C@H]12"
Return: 501 to 5000 mg/kg
